# protocol-details: Clearance in mouse at 1 mg/kg, iv using 10% DMSO:10% PEG400:80% (20% SBE-CD, citrate buffered pH 6.0) as formulation
# Assay type: ADME, organism-based
# Set-up: dose 1 mg/kg, route intravenous
# stated-conditions: in vivo
parameter-measured: clearance (mL/min/kg)
Answer format: numeric, mL/min/kg implied, no suffix.

Req: Given the molecule COCCO[C@H]1CC[C@H](Nc2cc(=O)n(C)c3c(C)cc(-c4cncs4)cc23)CC1 , what is its reported clearance?
Resp: 8.9

Req: Given the molecule Cn1c(=O)cc(NC2CCOCC2)c2cc(-c3cncs3)ccc21 , what is its reported clearance?
Resp: 44.7
